assay.system: T1, Human CD3eg linker (human)
T1 construct: single-chain construct; also called recombinant human CD3
T1 chain: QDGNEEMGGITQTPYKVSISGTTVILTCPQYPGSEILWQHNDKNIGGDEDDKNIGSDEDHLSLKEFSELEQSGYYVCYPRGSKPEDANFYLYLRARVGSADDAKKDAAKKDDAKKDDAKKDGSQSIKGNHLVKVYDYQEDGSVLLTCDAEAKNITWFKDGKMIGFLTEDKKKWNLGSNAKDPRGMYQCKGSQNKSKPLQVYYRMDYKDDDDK
assay.details: SPR, vs unmutated H183/L072

# binder, fold change of affinity [fold]
measured = [
    ("dBBDu183H S62K/dBBDu072L (antibody, name in Kabat numbering, V domains shown) VH: QVQLVESGGGLVQPGRSLRLSCAASGFTFSNAWMHWVRQAPGKGLEWVAQIKDKGNAYAAYYAPKVKGRFTISRDDSKNSIYLQMNSLKTEDTAVYYCHYVHYASASTVLPAFGVDAWGQGTTVTVSS VL: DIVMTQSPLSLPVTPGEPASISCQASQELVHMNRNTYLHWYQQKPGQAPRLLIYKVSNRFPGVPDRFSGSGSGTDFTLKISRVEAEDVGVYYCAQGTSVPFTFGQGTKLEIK", 1.4),
    ("dBBDu183H S99K/dBBDu072L (antibody, name in Kabat numbering, V domains shown) VH: QVQLVESGGGLVQPGRSLRLSCAASGFTFSNAWMHWVRQAPGKGLEWVAQIKDKGNAYAAYYAPSVKGRFTISRDDSKNSIYLQMNSLKTEDTAVYYCHYVHYAKASTVLPAFGVDAWGQGTTVTVSS VL: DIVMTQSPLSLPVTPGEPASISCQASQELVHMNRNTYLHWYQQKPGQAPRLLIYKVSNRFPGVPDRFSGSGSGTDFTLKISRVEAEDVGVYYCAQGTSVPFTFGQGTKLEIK", 1.8),
    ("dBBDu183H H96N/dBBDu072L (antibody, name in Kabat numbering, V domains shown) VH: QVQLVESGGGLVQPGRSLRLSCAASGFTFSNAWMHWVRQAPGKGLEWVAQIKDKGNAYAAYYAPSVKGRFTISRDDSKNSIYLQMNSLKTEDTAVYYCHYVNYASASTVLPAFGVDAWGQGTTVTVSS VL: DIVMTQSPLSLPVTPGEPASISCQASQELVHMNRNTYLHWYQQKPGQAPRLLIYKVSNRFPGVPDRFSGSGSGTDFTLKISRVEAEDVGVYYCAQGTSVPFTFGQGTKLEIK", 0),
]
